Each item that follows carries a reported Area change rate (%).
# ASSAY NAME: Decomposition stability of single perfume component in sodium chlorite/benzalkonium chloride preparation, GC-MS, Example 5
# MEASUREMENT CONTEXT: perfume component 5 ppm in preparation; 50° C. for 2 weeks
ENDPOINT: Area change rate (%)

>>> measured_number("CC(C)=C1CC[C@@H](C)CC1=O [Pulegone]")
100
>>> measured_number("C=CC(C)(O)CCC=C(C)C (stereo not shown) [Linalool, reference compound]")
0
>>> measured_number("C=CCc1ccc(O)c(OC)c1 [Eugenol]")
97
>>> measured_number("C=C(C)C1CC=C(C)C(=O)C1 (stereo not shown) [Carvone]")
98
>>> measured_number("CC1CCC(C(C)C)C(O)C1 (stereo not shown) [Menthol]")
100
>>> measured_number("CC(C)[C@@H]1CC[C@@H](C)CC1=O [Menthone]")
75
>>> measured_number("Cc1ccc(C(C)C)c(O)c1 [Thymol]")
76

----------
# ASSAY NAME: Decomposition stability of single perfume component in sodium chlorite/benzalkonium chloride preparation, GC-MS, Example 5
# MEASUREMENT CONTEXT: perfume component 5 ppm in preparation; 50° C. for 2 weeks
ENDPOINT: Decomposition stability of additive component

>>> result("Cc1ccc(C(C)C)c(O)c1 [Thymol]")
"∘ (70% or more)"
>>> result("CC(C)=C1CC[C@@H](C)CC1=O [Pulegone]")
"∘ (70% or more)"
>>> result("CC1CCC(C(C)C)C(O)C1 (centres unmarked) [Menthol]")
"∘ (70% or more)"
>>> result("C=C(C)C1CC=C(C)C(=O)C1 (centres unmarked) [Carvone]")
"∘ (70% or more)"
>>> result("CC(C)[C@@H]1CC[C@@H](C)CC1=O [Menthone]")
"∘ (70% or more)"
